Data origin, for the record: patent US20250345446A1

Reported Kd values for a set of compounds
# Experimental system: soluble ectodomain of sortilin-6his (Homo sapiens, UniProt Q99523, V650M)
# Construct: the soluble ectodomain of sortilin-6his is measured by microscale thermophoresis (MST)
# Sequence (Q99523 with tags, fused parts or gaps V650M): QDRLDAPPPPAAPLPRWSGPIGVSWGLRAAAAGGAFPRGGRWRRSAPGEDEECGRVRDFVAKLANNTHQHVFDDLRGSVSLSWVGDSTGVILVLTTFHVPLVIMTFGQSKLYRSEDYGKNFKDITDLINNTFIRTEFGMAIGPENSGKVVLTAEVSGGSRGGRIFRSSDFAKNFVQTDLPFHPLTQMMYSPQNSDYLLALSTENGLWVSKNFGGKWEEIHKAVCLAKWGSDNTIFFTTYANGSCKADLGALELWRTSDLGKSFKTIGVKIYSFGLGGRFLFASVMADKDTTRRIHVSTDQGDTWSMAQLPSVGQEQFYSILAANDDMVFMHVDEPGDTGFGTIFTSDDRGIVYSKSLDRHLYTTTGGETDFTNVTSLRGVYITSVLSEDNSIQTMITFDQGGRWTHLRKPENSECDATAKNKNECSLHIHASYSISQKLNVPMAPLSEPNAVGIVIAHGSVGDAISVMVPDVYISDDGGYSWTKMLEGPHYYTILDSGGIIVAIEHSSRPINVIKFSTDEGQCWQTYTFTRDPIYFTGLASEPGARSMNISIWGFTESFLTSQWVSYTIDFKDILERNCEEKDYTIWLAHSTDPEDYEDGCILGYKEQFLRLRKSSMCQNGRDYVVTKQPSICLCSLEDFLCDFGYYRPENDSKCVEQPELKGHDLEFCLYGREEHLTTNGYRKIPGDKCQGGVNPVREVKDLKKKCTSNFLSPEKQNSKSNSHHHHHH
# Procedure text: MST binding to soluble ectodomain of sortilin-6his
# Condition description: Table 4; small molecule bifunctional compounds; MST; read-out: KD score, binding to sortilin (Kd)
Quantity kind: Kd

Molecule smiles: CC(C)(C)CC[C@H](NC(=O)c1ccc(Oc2cccc(C(=O)NCCOCCOCCOCCOCCOc3ncc(-c4ccc5c(n4)N(Cc4cccnc4C#N)C(C)(C)C5=O)cn3)c2)nc1)C(=O)O
Quantity kind: Kd
Result: 1 to 10 nM
--
Molecule smiles: C[C@@H]1CN(c2ncc(-c3ccc4c(n3)N(Cc3cccnc3C#N)C(C)(C)C4=O)cn2)CCN1C(=O)Cn1cc(COCCOCCOC2CN(CCOCCOc3cccc(Oc4ccc(C(=O)N[C@@H](CCC(C)(C)C)C(=O)O)cn4)c3)C2)nn1
Quantity kind: Kd
Result: < 1 nM
--
Molecule smiles: C[C@@H]1CN(c2ncc(-c3ccc4c(n3)N(Cc3cccnc3C#N)C(C)(C)C4=O)cn2)CCN1C(=O)CNC(=O)COCCOCCCCCCNC(=O)c1cccc(Oc2ccc(C(=O)N[C@@H](CCC(C)(C)C)C(=O)O)cn2)c1
Quantity kind: Kd
Result: 1 to 10 nM
--
Molecule smiles: CC(C)(C)CC[C@H](NC(=O)c1ccc(Oc2cccc(C(=O)NCCOCCOCCOCCOCCOCc3ccc(-c4cccc5ccncc45)c(OCCc4ccc(-c5cccc6ccncc56)cc4)c3)c2)nc1)C(=O)O
Quantity kind: Kd
Result: < 1 nM
--
Molecule smiles: CC(C)(C)CC[C@H](NC(=O)c1ccc(Oc2cccc(OCC(=O)NCCOCCOCCOCCOc3ncc(-c4ccc5c(n4)N(Cc4cccnc4C#N)C(C)(C)C5=O)cn3)c2)nc1)C(=O)O
Quantity kind: Kd
Result: 1 to 10 nM
--
Molecule smiles: C[C@@H]1CN(c2ncc(-c3ccc4c(n3)N(Cc3cccnc3C#N)C(C)(C)C4=O)cn2)CCN1C(=O)Cn1cc(COCCOCCOCCOCCOCCOc2cccc(Oc3ccc(C(=O)N[C@@H](CCC(C)(C)C)C(=O)O)cn3)c2)nn1
Quantity kind: Kd
Result: < 1 nM
--
Molecule smiles: CC(C)(C)CC[C@H](NC(=O)c1ccc(Oc2cccc(C(=O)NCCOCCOCCOCCOCCNc3ncc(-c4ccc5c(n4)N(Cc4cccnc4C#N)C(C)(C)C5=O)cn3)c2)nc1)C(=O)O
Quantity kind: Kd
Result: 1 to 10 nM
--
Molecule smiles: CC(C)(C)CC[C@H](NC(=O)c1ccc(Oc2cccc(C(=O)NCCOCCOCCNc3ncc(-c4ccc5c(n4)N(Cc4cccnc4C#N)C(C)(C)C5=O)cn3)c2)nc1)C(=O)O
Quantity kind: Kd
Result: 1 to 10 nM
--
Molecule smiles: CC(C)(C)CC[C@H](NC(=O)c1ccc(Oc2cccc(C(=O)NCCOCCOCCOCCNc3ccc([N+](=O)[O-])cc3[N+](=O)[O-])c2)nc1)C(=O)O
Quantity kind: Kd
Result: 1 to 10 nM
--
Molecule smiles: C[C@@H]1CN(c2ncc(-c3ccc4c(n3)N(Cc3cccnc3C#N)C(C)(C)C4=O)cn2)CCN1C(=O)CNC(=O)CCCCCCCCCCCNC(=O)c1cccc(Oc2ccc(C(=O)N[C@@H](CCC(C)(C)C)C(=O)O)cn2)c1
Quantity kind: Kd
Result: 1 to 10 nM
